Below: a set of entries, each annotated with reported log10(TGI).
- System: HL-60(TB) leukemia
- TEST_METHOD_NOTES: NCI tumour cell line growth inhibition, 48 h
PROPERTY_LABEL: log10(TGI) (log10 of the value in µM)

[[record]]
compound = "CC(C)CCCC(C)[C@H]1CC[C@H]2n3c(nnc3-c3ccccc3)CCC[C@]12C (some centres undefined)"
value_observed = 1.21

[[record]]
compound = "CCCCCCCCCCCCCC1CCC(CC)N1 (centres undefined)"
value_observed = 1.33

[[record]]
compound = "COc1ccc2c(c1)CCC1C3(CCCC21C)OCCO3 (centres undefined)"
value_observed = 1.64

[[record]]
compound = "COc1cc(C(=O)NNC(=O)c2cc(Br)ccc2NC(=O)c2cccs2)cc(OC)c1OC"
value_observed = 1.97

[[record]]
compound = "CN(C)CCCn1c2c(c3ccccc3c1=O)C(=O)c1ccccc1-2"
value_observed = 0.59

[[record]]
compound = "CCCCCCCC(CC(=O)NC(CO)C(=O)NC(CO)CC(C)C)OC(=O)CC(CCCCCCC)OC(=O)CC(CCCCCCC)OC1OC(C)C(O)C(OC2OC(C)C(O)C(OC(C)=O)C2O)C1O (centres undefined)"
value_observed = 1.37

[[record]]
compound = "COc1cc(C2=NN(C(C)=O)C(c3ccc(OC(C)=O)cc3OC(C)=O)O2)c(OC(C)=O)c2ccccc12 (centres undefined)"
value_observed = 0.47

[[record]]
compound = "Cc1ccc(Nc2nc3c(s2)C(=O)c2ccccc2C3=O)c(C)c1"
value_observed = 0.78

[[record]]
compound = "CCC1(O)C(=O)OCc2c1cc1n(c2=O)Cc2cc3ccc(C=O)cc3nc2-1 (centres undefined)"
value_observed = 0.78

[[record]]
compound = "COc1ccc(C(=O)c2cc(C)c(OC)c(C)c2)c(OC)c1N(C(=O)C(Cl)Cl)C(=O)C(Cl)Cl"
value_observed = -1.02


====

- Tested on: KM12 colon
- TEST_METHOD_NOTES: NCI tumour cell line growth inhibition, 48 h
PROPERTY_LABEL: TGI

[[record]]
compound = "CCOc1cccc(C=Nc2ccccc2SSc2ccccc2N=Cc2cccc(OCC)c2O)c1O"
value_observed = "19.6 µM"

[[record]]
compound = "CCc1[nH]c(=O)nc(N)c1-c1ccc(N2CCCCC2)c([N+](=O)[O-])c1"
value_observed = "> 100 µM"

[[record]]
compound = "CN/N=C(/CCN1CCCC1)CC(c1ccccc1)c1c(O)c2ccccc2oc1=O (stereo not given)"
value_observed = "> 100 µM"

[[record]]
compound = "O=S(=O)(/N=S(/Nc1ccccc1)C(Cl)Cl)c1ccccc1 (stereo not given)"
value_observed = "> 100 µM"

[[record]]
compound = "CC(C)CCCC(C)[C@H]1CC[C@H]2n3c(nnc3-c3ccccc3)CCC[C@]12C (stereo not given in full)"
value_observed = "> 100 µM"


====

- Tested on: M19-MEL melanoma
- TEST_METHOD_NOTES: NCI tumour cell line growth inhibition, 48 h
PROPERTY_LABEL: TGI (µM)

[[record]]
compound = "COc1ccc2c(c1)CCC1C3(CCCC21C)OCCO3 (stereo unspecified)"
measurement_target = "M19-MEL melanoma"
result_operator = "="
value_observed = 37.7

[[record]]
compound = "C=CCCCCCCCCC(=O)NS(=O)(=O)c1ccccc1"
measurement_target = "M19-MEL melanoma"
result_operator = ">"
value_observed = 100

[[record]]
compound = "NC1=NN(c2ccccc2)C(=O)C1C(=O)CCC(=O)Nc1cccc(C(F)(F)F)c1 (stereo unspecified)"
measurement_target = "M19-MEL melanoma"
result_operator = ">"
value_observed = 100

[[record]]
compound = "Cc1noc(C)c1CCCOC1COc2ccccc2OCCOCCOc2ccccc2OC1"
measurement_target = "M19-MEL melanoma"
result_operator = ">"
value_observed = 100

[[record]]
compound = "Cc1ccc2nc3c(C(=O)NCCN(C)C)cccc3nc2c1"
measurement_target = "M19-MEL melanoma"
result_operator = "="
value_observed = 7.29

[[record]]
compound = "Cc1ccc(Nc2nc3c(s2)C(=O)c2ccccc2C3=O)c(C)c1"
measurement_target = "M19-MEL melanoma"
result_operator = "="
value_observed = 5.71


====

- Test system: RXF 393 renal
- TEST_METHOD_NOTES: NCI tumour cell line growth inhibition, 48 h
PROPERTY_LABEL: log10 of TGI (log10 of the value in µM)

[[record]]
compound = "CCC[CH2][Sn]1([CH2]CCC)[O]C(=O)C(C(C)C)N=Cc2ccccc2[O]1 (stereo not drawn)"
property_label = "log10 of TGI"
value_observed = -0.66

[[record]]
compound = "Cc1ccc(C(=NN=C(N)N)c2ccc(C)cc2)cc1"
property_label = "log10 of TGI"
value_observed = 0.24

[[record]]
compound = "CN1CCC23c4c5ccc(Oc6nnnn6-c6ccccc6)c4OC2c2[nH]c4ccccc4c2CC3(O)C1C5 (stereo not drawn)"
property_label = "log10 of TGI"
value_observed = 0.75

[[record]]
compound = "C[N+](C)(C)CC1CCCC(C[N+](C)(C)C)C1=O (stereo not drawn)"
property_label = "log10 of TGI"
value_observed = 0.50

[[record]]
compound = "CC1=NN(c2ccccc2)C2(C1)C(Cl)C(=O)N2c1nc2ccccc2s1 (stereo not drawn)"
property_label = "log10 of TGI"
value_observed = 1.99

[[record]]
compound = "COc1cc(NC(=O)c2cc(O)c(CC=C(C)C)c(O)c2)cc2c1O[C@]1(C)CC[C@@H](O)C(C)(C)[C@H]1C2"
property_label = "log10 of TGI"
value_observed = 0.37

[[record]]
compound = "CC(=O)OC1C=C(C=O)C(O)(C=O)C2(C)CCCC(C)(C)C12 (stereo not drawn)"
property_label = "log10 of TGI"
value_observed = 0.00

[[record]]
compound = "CC[O-].CC[O-].O=C1c2ccccc2C(=O)c2c(O)ccc([O-])c21.O=C1c2ccccc2C(=O)c2c(O)ccc([O-])c21.[Ti+4]"
property_label = "log10 of TGI"
value_observed = 1.96

[[record]]
compound = "NCC(Cl)C(O)c1cnc(N)[nH]1 (stereo not drawn)"
property_label = "log10 of TGI"
value_observed = 0.67

[[record]]
compound = "O=C1CC(Br)c2c(Br)sc(Br)c21 (stereo not drawn)"
property_label = "log10 of TGI"
value_observed = 1.52

[[record]]
compound = "Cc1c(N=Nc2ccccc2)c(-c2ccccc2)n(C2OC(CO)C(O)C(O)C2O)c(=S)c1C#N (stereo not drawn)"
property_label = "log10 of TGI"
value_observed = 1.01

[[record]]
compound = "COC(=O)/C(C)=N/NC(=S)SC"
property_label = "log10 of TGI"
value_observed = 1.99


====

- Tested on: SR leukemia
- TEST_METHOD_NOTES: NCI tumour cell line growth inhibition, 48 h
PROPERTY_LABEL: TGI

[[record]]
compound = "COc1cccc(Nc2nc(C)c([N+](=O)[O-])c(Nc3cccc(OC)c3)n2)c1"
value_observed = "> 100 µM"

[[record]]
compound = "O=c1cccccc1NCCCNc1cccccc1=O"
value_observed = "> 100 µM"

[[record]]
compound = "CC12CCCC(C(=O)O)(C1)[C@H](C(C)(C)C(=O)O)CC2 (stereo not given in full)"
value_observed = "> 100 µM"

[[record]]
compound = "COc1nn(Cc2ccccn2)c2ccc([N+](=O)[O-])cc12"
value_observed = "98.4 µM"

[[record]]
compound = "CC12CCCC(O)C1CCC1=CC3(CCC12)SCCS3 (stereo not given)"
value_observed = "> 10 µM"

[[record]]
compound = "COc1cc(C2C3=C(COC3=O)OC(C)(C)Oc3cc4c(cc32)OCO4)cc(OC)c1O (stereo not given)"
value_observed = "> 100 µM"

[[record]]
compound = "O=C1c2ccccc2-c2nnc(-c3ccc([N+](=O)[O-])cc3)cc21"
value_observed = "> 10 µM"

[[record]]
compound = "Cn1cc(C(=O)c2ccccc2)ccc1=O"
value_observed = "> 100 µM"

[[record]]
compound = "COc1ccc(C(C)c2cc3c(cc2OC)OCO3)cc1 (stereo not given)"
value_observed = "> 5.04 µM"

[[record]]
compound = "CCCCCCCC(CC(=O)NC(CO)C(=O)NC(CO)CC(C)C)OC(=O)CC(CCCCCCC)OC(=O)CC(CCCCCCC)OC1OC(C)C(O)C(OC2OC(C)C(O)C(OC(C)=O)C2O)C1O (stereo not given)"
value_observed = "13.2 µM"

[[record]]
compound = "CC1(n2nc(-c3ccccc3)n(-c3ccccc3)c2=O)CSC1"
value_observed = "> 100 µM"

[[record]]
compound = "CCc1[nH]c(=O)nc(N)c1-c1ccc(N2CCCCC2)c([N+](=O)[O-])c1"
value_observed = "> 100 µM"

[[record]]
compound = "CC(=O)OCC1OC(NC(=S)Nn2c(=O)[nH]c3ccccc3c2=O)C(OC(C)=O)C(OC(C)=O)C1OC(C)=O (stereo not given)"
value_observed = "> 100 µM"

[[record]]
compound = "CN(C)CC/C(=N\\Nc1c(Cl)cccc1Cl)c1ccccc1"
value_observed = "63.4 µM"

[[record]]
compound = "N=C1C(=N)c2ccccc2-c2ccccc21.[Cl-].[Ru+2].c1cnc2c(c1)ccc1cccnc12.c1cnc2c(c1)ccc1cccnc12"
value_observed = "> 100 µM"

